test: In vivo biodistribution in mice
Set-up: species or system normal CD-1 male mice
condition summary: iv, 30 min (0.5 hr) post injection
Protocol: Biodistribution experiments were performed by intravenously administering ^68Ga labeled 1a-h, 2, 3, BPAMD, and [^18F]NaF into normal, healthy male CD-1 mice (25-30 g). The injection activity was 20-30 μCi/animal. […] Organs of interest were harvested, weighed, and counts of radioactivity were measured by a gamma counter. The biodistribution of each sample was calculated as a percentage of the injected dose per gram of wet tissue weight (% ID/g). […]
I'd be grateful if you could share measured Biodistribution: Heart for these entries.
One number for each entry, in % dose/g.

Your task in this section: give Biodistribution: Heart for each listed record.
1. O=C([O-])CN(CCN(CC(=O)[O-])Cc1cc(CCC(=O)NC(P(=O)(O)O)P(=O)(O)O)ccc1[O-])Cc1cc(CCC(=O)NCCNC(=O)CN2CCN(CC(=O)O)CCN(CC(=O)O)CCN(CC(=O)O)CC2)ccc1[O-].[68Ga+3] [[^68Ga]1h]
2. C[C@H](NC(=O)CCc1ccc([O-])c(CN(CCN(CC(=O)[O-])Cc2cc(CCC(=O)NC(P(=O)(O)O)P(=O)(O)O)ccc2[O-])CC(=O)[O-])c1)C(=O)O.[68Ga+3] [[^68Ga]1d]

Result:
0.24
0.26

Query: Note down Biodistribution: Heart recorded for O=C([O-])CN(CCN(CC(=O)[O-])Cc1cc(CCC(=O)O)ccc1[O-])Cc1cc(CCC(=O)O)ccc1[O-].[68Ga+3] [[^68Ga]HBED-CC, reference compound]
Result: 0.34
